Target: human PD1 (human, UniProt Q15116)
Sequence (Q15116 25-167): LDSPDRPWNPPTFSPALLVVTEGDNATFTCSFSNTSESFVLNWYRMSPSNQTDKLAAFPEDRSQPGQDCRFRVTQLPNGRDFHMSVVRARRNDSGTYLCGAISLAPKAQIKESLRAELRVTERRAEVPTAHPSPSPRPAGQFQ
Test: ELISA
We begin with a simple list: items and their reported EC50.
Report as a plain number; the unit pM is understood.

P-1148 (antibody, V domains shown) VH: QVQLVQSGVEVKKPGASVKVSCKASGYTFTNYYMYWVRQAPGQGLEWMGGINPSNGGTNFAQKFQGRVTLTTDSSTTTAYMELKSLQFDDTAVYYCARRDYRFDMGFDYWGQGTTVTVSS VL: EIVLTQSPATLSLSPGERATLSCRASQGVSTSGYSYLHWYQQKPGQAPRLLIYLASYRASGVPARFSGSGSGTDFTLTISSLEPEDFAVYYCQHSRDLPLTFGGGTKVEIKR; 93
P-1153 (antibody, V domains shown) VH: QVQLVQSGVEVKKPGASVKVSCKASGYTFTNYYMYWVRQAPGQGLEWMGGINPSNGGTNYAQKFQGRVTLTTDSSTTTAYMELKSLQFDDTAVYYCARRDYRFDMGFDYWGQGTTVTVSS VL: EIVLTQSPATLSLSPGERATLSCRASQGVSTSGYSYLAWYQQKPGQAPRLLIYLASYRASGVPARFSGSGSGTDFTLTISSLEPEDFAVYYCQHSRDLPLTFGGGTKVEIKR; 110
P-1151 (antibody, V domains shown) VH: QVQLVQSGVEVKKPGASVKVSCKASGYTFTNYYMYWVRQAPGQGLEWMGGINPSNGGTNYAQKFQGRVTLTTDSSTTTAYMELKSLQFDDTAVYYCARRDYRFDMGFDYWGQGTTVTVSS VL: EIVLTQSPATLSLSPGERATLSCRASQGVSTSGYSYLHWYQQKPGQAPRLLIYLASYRASGVPARFSGSGSGTDFTLTISSLEPEDFAVYYCQHSRDLPLTFGGGTKVEIKR; 65

Then there is this binder:
# EC50 (binder: P-1150 (antibody, V domains shown) VH: QVQLVQSGVEVKKPGASVKVSCKASGYTFTNYYMYWVRQAPGQGLEWMGGINPSNGGTNFAQKFQGRVTLTTDSSTTTAYMELKSLQFDDTAVYYCARRDYRFDMGFDYWGQGTTVTVSS VL: EIVLTQSPATLSLSPGERATLSCRASQGVSTSGYSYLAWYQQKPGQAPRLLIYLASYRASGVPARFSGSGSGTDFTLTISSLEPEDFAVYYCQHSRDLPLTFGGGTKVEIKR ) is 88
